Documented MIC across a set of molecules
- Test system: E. coli (QA-11.7)
- assayName: MIC broth microdilution, E. coli QA-11.7
- Assay type: cell-based
- particulars: Escherichia coli, 20 h; multi-resistant isolate (ampicillin, azithromycin, cefotaxime, ertapenem, imipenem and others); read-out: MIC E. coli (QA-11.7)

[
  {
    "molecule": "COc1ccc2nccc(CCN3CCC(NCc4ccc(OC(F)F)c(OC)c4)CC3)c2n1 [Compound 19]",
    "MIC": "2 µg/mL"
  },
  {
    "molecule": "COc1ccc2nccc(CCN3CCC(NCc4cnn(-c5ccc(F)cc5)c4)CC3)c2n1 [Compound 4]",
    "MIC": "16 µg/mL"
  },
  {
    "molecule": "COc1ccc2nccc(CCN3CCC(NCc4ccc(Br)cc4)CC3)c2n1 [Compound 14]",
    "MIC": "1 µg/mL"
  },
  {
    "molecule": "COc1ccc2nccc(CCN3CCC(NCc4cnn(-c5ccccc5)n4)CC3)c2n1 [Compound 8]",
    "MIC": "4 µg/mL"
  },
  {
    "molecule": "COc1ccc2nccc(CCN3CCC(NCc4nc5ccccc5n4C)CC3)c2n1 [Compound 3]",
    "MIC": "64 µg/mL"
  },
  {
    "molecule": "COc1ccc2nccc(CCN3CCC(NCc4ccc(Cl)cc4)CC3)c2n1 [Compound 13]",
    "MIC": "1 µg/mL"
  },
  {
    "molecule": "COc1ccc2nccc(CCN3CCC(NCc4ccc(C(F)(F)F)nc4)CC3)c2n1 [Compound 21]",
    "MIC": "2 µg/mL"
  },
  {
    "molecule": "COc1ccc2nccc(CCN3CCC(NCc4cnn(-c5ccccc5)c4)CC3)c2n1 [Compound 5]",
    "MIC": "2 µg/mL"
  }
]

Note: attention shifts to another entry.
Q: Can you look up the measured MIC of COc1ccc(CNC2CCN(CCc3ccnc4ccc(OC)nc34)CC2)cn1 [Compound 22] for me?
Ans: 2 µg/mL
